Biological target: UniProt P00533
Sequence (P00533 whole entry): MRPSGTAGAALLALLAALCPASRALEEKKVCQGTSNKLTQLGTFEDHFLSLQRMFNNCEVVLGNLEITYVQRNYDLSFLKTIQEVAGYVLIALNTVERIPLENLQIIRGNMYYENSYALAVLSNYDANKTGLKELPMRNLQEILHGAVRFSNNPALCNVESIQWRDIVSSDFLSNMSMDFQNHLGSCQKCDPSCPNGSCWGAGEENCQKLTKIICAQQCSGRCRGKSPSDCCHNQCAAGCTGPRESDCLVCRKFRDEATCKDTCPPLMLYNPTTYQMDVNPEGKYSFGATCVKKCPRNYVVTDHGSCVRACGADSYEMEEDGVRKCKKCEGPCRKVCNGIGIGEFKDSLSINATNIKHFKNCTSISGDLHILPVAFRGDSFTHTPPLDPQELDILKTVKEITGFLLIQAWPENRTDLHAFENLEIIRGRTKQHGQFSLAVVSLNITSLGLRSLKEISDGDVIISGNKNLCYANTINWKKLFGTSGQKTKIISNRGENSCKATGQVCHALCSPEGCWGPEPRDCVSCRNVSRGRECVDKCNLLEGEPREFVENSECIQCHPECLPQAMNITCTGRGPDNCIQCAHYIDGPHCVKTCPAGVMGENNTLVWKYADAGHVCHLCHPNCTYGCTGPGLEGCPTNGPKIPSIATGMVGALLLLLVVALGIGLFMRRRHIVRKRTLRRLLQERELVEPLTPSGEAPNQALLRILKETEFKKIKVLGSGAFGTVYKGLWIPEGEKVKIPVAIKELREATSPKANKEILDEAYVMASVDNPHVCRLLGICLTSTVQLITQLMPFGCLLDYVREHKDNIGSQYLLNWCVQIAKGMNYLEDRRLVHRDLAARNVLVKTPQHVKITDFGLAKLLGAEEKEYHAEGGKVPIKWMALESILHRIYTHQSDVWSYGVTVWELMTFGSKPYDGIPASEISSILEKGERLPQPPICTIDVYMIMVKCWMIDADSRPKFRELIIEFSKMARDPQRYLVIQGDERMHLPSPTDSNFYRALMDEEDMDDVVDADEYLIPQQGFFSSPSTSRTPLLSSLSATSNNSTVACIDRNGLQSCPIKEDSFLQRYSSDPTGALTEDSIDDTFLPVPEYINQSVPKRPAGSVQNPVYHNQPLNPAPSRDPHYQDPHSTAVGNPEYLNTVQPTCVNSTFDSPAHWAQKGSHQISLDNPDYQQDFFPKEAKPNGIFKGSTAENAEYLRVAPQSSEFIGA
Experiment: Inhibition of recombinant EGFR (unknown origin) using poly-GT peptide as substrate by Transcreener assay
quantity-measured: pIC50
FYI, pIC50 means -log10 of a concentration in mol per litre.

Quickly give me recorded pIC50 for COc1cc2c(Oc3ccc(NS(=O)(=O)c4cc(-c5ccsc5)ccc4F)cc3F)ccnc2cc1OCCCN1CCN(C)CC1
6.24

Quickly give me recorded pIC50 for COc1cc2c(Oc3ccc(NS(=O)(=O)c4cccc(-c5cnn(C)c5)c4)cc3F)ccnc2cc1OCCCN1CCOCC1
5.86

Quickly give me recorded pIC50 for COc1cc2c(Oc3ccc(NS(=O)(=O)c4cccc(-c5ccco5)c4)cc3F)ccnc2cc1OCCCN1CCN(C)CC1
5.72

Quickly give me recorded pIC50 for COc1cc2c(Oc3ccc(NS(=O)(=O)c4ccc(-c5ccsc5)cc4)cc3F)ccnc2cc1OCCCN1CCN(C)CC1
5.92
